Palmitoleoyl-protein carboxylesterase NOTUM (Homo sapiens, UniProt Q6P988, C330S) data, read-out IC50
Sequence (Q6P988 20-496 C330S limits assumed): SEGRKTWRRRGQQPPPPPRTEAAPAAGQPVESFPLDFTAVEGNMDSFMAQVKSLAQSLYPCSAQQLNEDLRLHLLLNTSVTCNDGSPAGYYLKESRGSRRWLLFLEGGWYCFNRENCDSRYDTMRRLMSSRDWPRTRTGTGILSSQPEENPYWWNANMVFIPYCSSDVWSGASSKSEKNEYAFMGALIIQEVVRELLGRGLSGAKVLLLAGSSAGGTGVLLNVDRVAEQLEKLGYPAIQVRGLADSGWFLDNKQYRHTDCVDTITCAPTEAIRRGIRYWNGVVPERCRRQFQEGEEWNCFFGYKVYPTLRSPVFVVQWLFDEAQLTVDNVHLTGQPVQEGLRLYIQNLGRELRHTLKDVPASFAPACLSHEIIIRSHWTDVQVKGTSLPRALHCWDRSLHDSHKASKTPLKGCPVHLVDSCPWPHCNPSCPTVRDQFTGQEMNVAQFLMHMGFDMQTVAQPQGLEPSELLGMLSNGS
observable: IC50 (nM)

(1) O=C(CSc1ncnc2c(C3CC3)c(Cl)sc12)N1CCn2cnnc2C1
(2) Cc1sc2ncnc(SCC(=O)O)c2c1Cl
Ask: Input pair: 1 , 2 . Output: entry with lower IC50. Return value: the label identifying the chosen record.
Reply: 1

###

method-summary: Apparent permeability across apical to basolateral membrane in dog MDCK-MDR1 cells
Assay type: ADME, cell-based, Canis lupus familiaris
observable: Papp A→B (×10⁻⁶ cm/s)

1. O=C1CN(C(=O)CSc2ncnc3c(C4CC4)c(Cl)sc23)CN1	3.8

(a) O=C(CSc1ncnc2c(C3CC3)c(Cl)sc12)N1CCn2cnnc2C1
(b) O=C1CN(C(=O)CSc2ncnc3c(C4CC4)c(Cl)sc23)CCN1
(c) O=C(CSc1ncnc2c(C3CC3)c(Cl)sc12)N1CCOCC1
Ask: Falling order of Papp A→B, please. The labels, placed in the requested order, form the answer.
Reply: c, b, a
(c: 40 ×10⁻⁶ cm/s, b: 7.9 ×10⁻⁶ cm/s, a: 0.95 ×10⁻⁶ cm/s)

Taken from ChEMBL document CHEMBL4610015.
